biological target: UniProt:Q13133; assay: LXR α radioligand binding assay (SPA, competition with [3H]TO901317); details: read-out: LXRα Binding Ki
Sequence (Q13133 209-447): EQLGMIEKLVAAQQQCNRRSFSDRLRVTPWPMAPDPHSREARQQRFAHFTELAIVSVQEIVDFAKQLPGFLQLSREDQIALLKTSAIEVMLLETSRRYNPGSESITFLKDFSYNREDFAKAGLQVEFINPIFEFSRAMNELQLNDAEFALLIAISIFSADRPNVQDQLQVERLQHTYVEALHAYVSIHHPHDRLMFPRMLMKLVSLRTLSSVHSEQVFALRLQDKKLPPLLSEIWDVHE
property.label: log10 of Ki (log10 of the value in µM)
Log10 applied to Ki; unit prior to transform: µM.

Completed entries (count: 3):
- molecule: "CC(C)[C@@H]1CN(c2cccc(S(C)(=O)=O)c2)CCN1c1ccc(C(F)(F)F)nn1 [7-48]"
  log10 of Ki: -0.06
- molecule: "CNS(=O)(=O)c1cc(N2CCN(c3ncc(C(=O)OC)c(C(F)(F)F)n3)[C@H](C(C)C)C2)ccc1F [9-6]"
  log10 of Ki: -1.00
- molecule: "CS(=O)(=O)c1cccc(N2CCN(C[C@H]3CCC(C(F)(F)F)OC3)[C@@H](c3ccc(F)cc3)C2)c1 (single isomer, unassigned) [49-10]"
  log10 of Ki: -0.36

Provide log10 of Ki values for the following items, in order.
1. CC(C)[C@@H]1CN(c2ccc(F)c(S(C)(=O)=O)c2)CCN1c1nccc(C#N)n1 [7-7]
2. CO[C@H]1CC[C@@H](CN2CCN(c3ccc(CO)c(S(C)(=O)=O)c3)C[C@@H]2C(C)C)CC1 (single isomer, unassigned) [Cpd No 51-7]
3. COC(=O)c1cnc(N2CCN(c3ccc(F)c(S(C)(=O)=O)c3)C[C@H]2C(C)C)nc1 [7-14]
4. CCOC(=O)c1csc(-c2ccc(N3CCN(C(=O)OC(C)(C)C)[C@H](C(C)C)C3)cc2S(C)(=O)=O)n1 [2-4]
5. CS(=O)(=O)c1cccc(N2CCN(C[C@H]3CC[C@@H](C(F)(F)F)CC3)[C@@H](c3ccccc3)C2)c1 (single isomer, unassigned) [48-31]
6. Cc1ccc(CN2CCN(c3cccc(S(C)(=O)=O)c3)C[C@@H]2c2ccccc2)cc1 (single isomer, unassigned) [46-6]
7. CC(C)[C@H]1CN(c2cccc(S(C)(=O)=O)c2)CCN1CC1CCC(C)(C)OC1 (some centres unmarked) [51-3]

1. -0.38
2. -0.52
3. 0.46
4. 0.03
5. -1.38
6. -0.28
7. 0.50

Provide log10 of Ki values for the following items, in order.
1. CC(C)[C@@H]1CN(c2ccc(F)c(S(C)(=O)=O)c2)CCN1C[C@H]1CC[C@@H](C(F)(F)F)CC1 [48-24]
2. CS(=O)(=O)c1cccc(N2CCN(Cc3ccc(OC(F)F)cc3)[C@@H](c3ccccc3)C2)c1 [46-11]
3. CC(C)[C@@H]1CN(c2cccc(S(C)(=O)=O)c2)CCN1C[C@H]1CC[C@@H](C(F)(F)F)CC1 (single isomer, unassigned) [48-9]

-0.12
0.52
-0.31

Data origin: patent US10144715B2
